- procedure.details: Observed blood CL, mouse
- details: mouse, blood
assay.metric: clearance

# clearance of Cc1nc(Nc2ncc(N3CCN(C)[C@H](C)C3)c(Nc3cc(C)n(C)n3)n2)cc(C2CC2)c1F [compound 12] = 48 to 53 mL/min/kg

###

- procedure.details: Rat blood PK, IV and oral
- Assay type: in vivo
- details: Wistar (rat), Beagle (dog), rat, whole blood (rat), plasma (dog), iv, 2 mg/kg, intravenous PK, rat and dog; read-out: half-life
- Description: Blood samples were collected at 0.083, 0.25, 0.5, 1, 2, 4, 8, 23, 32, 48, 55 and 72 hours after an IV dose of 2 mg/kg or an oral dose of 10 mg/kg. Oral administration was done using oral gavage at a maximum dose volume of 10 mL/kg. […] This mixture was centrifuged and 10 µL of the supernatant was analyzed by LC-MS/MS. […]
assay.metric: half-life

# half-life of Cc1nc(Nc2ncc(N3CCN(C)[C@H](C)C3)c(Nc3cc(C)n(C)n3)n2)cc(C2CC2)c1F = 11 to 13 h

###

- target.entity: Muscarinic M2 receptor (Homo sapiens)
- Sequence (P08172 1-466): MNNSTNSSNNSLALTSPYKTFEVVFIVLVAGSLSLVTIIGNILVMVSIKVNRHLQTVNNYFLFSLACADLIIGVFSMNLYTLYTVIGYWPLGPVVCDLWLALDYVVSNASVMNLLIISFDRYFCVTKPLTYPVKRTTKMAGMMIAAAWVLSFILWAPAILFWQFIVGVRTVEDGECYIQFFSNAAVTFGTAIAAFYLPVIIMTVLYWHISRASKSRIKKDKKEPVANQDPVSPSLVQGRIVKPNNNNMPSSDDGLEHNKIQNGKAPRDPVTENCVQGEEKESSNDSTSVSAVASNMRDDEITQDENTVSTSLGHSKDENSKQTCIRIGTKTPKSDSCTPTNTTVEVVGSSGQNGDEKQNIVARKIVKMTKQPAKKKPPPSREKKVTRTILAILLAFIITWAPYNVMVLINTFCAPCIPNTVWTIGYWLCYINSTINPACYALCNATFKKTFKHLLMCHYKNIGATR
assay.metric: Ki (nM)
All answers are understood in nM, so give the number only.

| mol | Ki (nM) |
| --- | --- |
| Cc1nc(Nc2ncc(N3CCN(C)[C@H](C)C3)c(Nc3cc(C)n(C)n3)n2)cc(C2CC2)c1F | 1050 |

# Ki of Cc1cc(Nc2ncc(N3CCN(C)CC3)c(N3CCCC3)n2)ccn1 = 1100

###

- procedure.details: PK in the blood of infected Pf/SCID mice
- Type: in vivo, mouse
- details: SCID, mouse, whole blood, oral; parent, Fixed
- Method: Peripheral blood samples (25 μl) were taken at different times (0.25, 0.5, 1, 2, 4, 6, 8 and 23 h), mixed with 25 μl of H2O Mili-Q and immediately frozen on dry ice. The frozen samples were stored at −80 °C until analysis. Vehicle-treated mice experienced the same blood-sampling regimen. […] Quantitative analysis by Liquid chromatography-tandem mass spectrometry (LC-MS/MS) was performed using UPLC (Waters) and Sciex API4000. The lower limit of quantification in this assay was 0.005 μg ml^−1.
assay.metric: CL/F (mL/min/kg)
All answers are understood in mL/min/kg, so give the number only.

# CL/F of Cc1nc(Nc2ncc(N3CCN(C)[C@H](C)C3)c(Nc3cc(C)n(C)n3)n2)cc(C2CC2)c1F = 650

Every entry's value here was drawn from paper PMC4389225.
